Assay: Drug excretion in Sprague-Dawley rat feces at 0.28 mg/kg, po administered as single dose within 74 hrs relative to control
Type: ADME, organism-based
Parameters: dose 0.28 mg/kg, route oral
Details: faeces, read-out: Drug excretion
readoutName: dose excreted at 74 h (%)

INSERT INTO results (testsmiles, datavalue) VALUES
  ('[3H]O[C@H]1C[C@@H](O)[C@H](/C=C/[C@@](C)(O)CCCCC)[C@H]1CC/C=C\CCC(=O)OC', 38);
